Hey, just so you know, these numbers are from the RNAGym collection of RNA variant scans (doi:10.7554/elife.90254).

B1: LINE1-full (parent)
chain: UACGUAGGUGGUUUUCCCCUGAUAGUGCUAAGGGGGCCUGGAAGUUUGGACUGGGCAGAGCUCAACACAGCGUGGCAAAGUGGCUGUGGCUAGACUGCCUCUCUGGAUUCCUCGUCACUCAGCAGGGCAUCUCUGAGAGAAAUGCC

Variants of: B1
Test: self-cleavage, relative activity (ratio to wild type); higher = more cleavage; in vitro, sequencing; the parent is a self-cleaving ribozyme
Consider the following variants and their measured self-cleavage readings.
METRIC NAME: self-cleavage

UACGUAGGUGGUUUUCCCCUGAUAGUGCUUAGGGGGCCUGGAAGUUUGGACUGGGCAGAGCUCUACACAGCGUGGCAAAGUGGCUGUGGCUAGACUGCCUCUCUGGAUUCCUCGUCACUCAGCAGGGCAUCUCUGAGAGAAAUGCC [A30U A64U]: 0.51
UACGUAGGUGGUUUUCCCCUGAUAGUGCUAAGGGGGCCUGGAAGUCUGGACUGGGUAGAGCUCAACACAGCGUGGCAAAGUGGCUGUGGCUAGACUGCCUCUCUGGAUUCCUCGUCACUCAGCAGGGCAUCUCUGAGAGAAAUGCC [U46C C56U]: 0.5
UACGUAGGUGGUUUUCCCCUGAUAGUGCUAAAGGGGCCUGGAAGUUUGGACUGGGCAGAGCCCAACACAGCGUGGCAAAGUGGCUGUGGCUAGACUGCCUCUCUGGAUUCCUCGUCACUCAGCAGGGCAUCUCUGAGAGAAAUGCC [G32A U62C]: 0.07
UACGUAGGUGGUUUUCCCCUGAUAGUGCUAAGGGGGCCUGGAAGUUUGUACUGGGCAGAGCCCAACACAGCGUGGCAAAGUGGCUGUGGCUAGACUGCCUCUCUGGAUUCCUCGUCACUCAGCAGGGCAUCUCUGAGAGAAAUGCC [G49U U62C]: 0.08
UACGUAGGUGGUUUUCCCCUGAUAGUGCUAAGGGGGCCUGGAAGUUUGGACUGGGCAGAGCUCAUCACAGCGUGGCAAAGUGGCUGUGGCUAGACUGCCUCUCUGGAUUCCUCGUCACUCAGCAGGGCAUCUCUGAGAGAAAAGCC [A65U U143A]: 0.06
UACGUAGGUGGAUUUCCCCUGAUAGUGCUAAGGGGGCCUGGAAGUUUGGACUGGGCAGCGCUCAACACAGCGUGGCAAAGUGGCUGUGGCUAGACUGCCUCUCUGGAUUCCUCGUCACUCAGCAGGGCAUCUCUGAGAGAAAUGCC [U12A A59C]: 0.61
UAAGUAGGUGGUUUUCCCCUGAUAGUGCUAAGGGGGCCUGGAAGUUUGGACUGGGCAGAGCUCAACACAACGUGGCAAAGUGGCUGUGGCUAGACUGCCUCUCUGGAUUCCUCGUCACUCAGCAGGGCAUCUCUGAGAGAAAUGCC [C3A G70A]: 0.08
UACGUAGGUGGUUUUCCCCUGAUAGUGCUAAGGGGGCCUGGAAGUUUGGACUGGGCAGAGCUCAUCACAGCGUGGCAAAGUGGCUGUGGCUAGACUGCCUCUCUGGAUUCCUCGUCACUCAGCAGGGCAUCUCUGAGUGAAAUGCC [A65U A138U]: 0.16
UACGUAGGUGGUUUUCCCCUGAUAGUGCUAAGGGGGCCUGGAAGUUUGGACUGGGCAGAGCUCAACACAGCGUGGCAAAGUGGCUGUGGCUAGACUGCCCCUCUGGAUCCCUCGUCACUCAGCAGGGCAUCUCUGAGAGAAAUGCC [U100C U109C]: 1.37
UACGUAGGUGGUUUUCCCCUGAUAGUGCUAAGGGGGCCUGGAAGAUUGGACUGGGCAGAGCACAACACAGCGUGGCAAAGUGGCUGUGGCUAGACUGCCUCUCUGGAUUCCUCGUCACUCAGCAGGGCAUCUCUGAGAGAAAUGCC [U45A U62A]: 0
UACGUAGGUGGUUUUCCCCUGAUAGUGCUAAGGGGGCCUGGAAGUUUGGACUGGGCAGAGCUCAACACAGCGUGGCAAAGUGGCUGUGGCUAGACUGCCUCUCUGGAUUCCUCGCCACUCAGAAGGGCAUCUCUGAGAGAAAUGCC [U115C C123A]: 1.49
UACGUGGGUGGUUUUCCCCUGAUAGUGCUAAGGGGGCCUGGAAGUUUGGACUGGGCAGAGCUCAGCACAGCGUGGCAAAGUGGCUGUGGCUAGACUGCCUCUCUGGAUUCCUCGUCACUCAGCAGGGCAUCUCUGAGAGAAAUGCC [A6G A65G]: 0.09
UACGUAGGUGGUUUUCCCCUGAUAGUGCUAAGGGGGCCUGGAAGUUUGGACUGGGCAGAGCUCAACACAGCGUGGCUAAGUGGCUGUGGCUAGACUGCCUCUCUGGAUUCCUCGUCACUCAGCAGGGCAUCUCUGUGAGAAAUGCC [A77U A136U]: 0.75
UACGUAGGUGGUUUUCCCCUGAUAGUGCCAAGGGGGCCUGGAAGUUUGGACUGGGCAGAGCUCAACACAGCGUGGCAAAGUGGCUGUGGCUAGACCGCCUCUCUGGAUUCCUCGUCACUCAGCAGGGCAUCUCUGAGAGAAAUGCC [U29C U96C]: 0.24
UACGUAGGUGGUUUUCCCCAGAUAGUGCUAAGGGGGCCUGGAAGUUUGGACUGGGCAGAGCUCAGCACAGCGUGGCAAAGUGGCUGUGGCUAGACUGCCUCUCUGGAUUCCUCGUCACUCAGCAGGGCAUCUCUGAGAGAAAUGCC [U20A A65G]: 0.11
UACGUAGGUGGUUUUCCCCUGAUAGUGCUAAGGGGGCCUGGAAGUUUGGACUGGGCAGAGCUCAACGCAGCGUGGCAAAGUGGCUGUGGCUAGACUGCCUCUCUGGAUUUCUCGUCACUCAGCAGGGCAUCUCUGAGAGAAAUGCC [A67G C110U]: 0.46
